# target_under_test: recombinant human GREM1 (hGREM1-His; C-terminal 10His tagged, R&D, #5190-GR) (human) (UniProt O60565)
# Sequence (O60565 other isoform, or with tags, fused parts or gaps limits assumed, form in doubt): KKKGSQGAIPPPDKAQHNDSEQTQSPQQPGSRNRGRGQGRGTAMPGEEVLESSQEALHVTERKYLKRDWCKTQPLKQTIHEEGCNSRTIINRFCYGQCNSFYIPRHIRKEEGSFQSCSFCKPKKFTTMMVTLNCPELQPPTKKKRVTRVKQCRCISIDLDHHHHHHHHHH
# test_method_notes: cell-based or functional assay
measured_quantity: hGREM1-His Inhibition IC50, M; W-20-17 cell differentiation assay (alkaline phosphatase) (nM)
Just the number in nM, nothing appended.

What the record says about H4H6243P (antibody, human IgG4, V domains shown) VH: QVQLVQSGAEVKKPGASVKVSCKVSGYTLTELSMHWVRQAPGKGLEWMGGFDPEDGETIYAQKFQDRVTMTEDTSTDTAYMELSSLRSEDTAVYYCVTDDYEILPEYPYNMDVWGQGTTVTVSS VL: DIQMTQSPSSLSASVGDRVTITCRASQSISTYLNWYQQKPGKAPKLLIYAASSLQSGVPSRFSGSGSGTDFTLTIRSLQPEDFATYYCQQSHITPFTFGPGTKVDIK : hGREM1-His Inhibition IC50, M; W-20-17 cell differentiation assay (alkaline phosphatase) is 5.9
